System: HOP-92 NSCLC
Experiment: NCI tumour cell line growth inhibition, 48 h
readoutLabel: TGI

// known answers, use as guide
- compound: "CN(CCc1ccc(N)cc1)[C@H]1CCCC[C@H]1N1CCCC1"
  readoutLabel: "TGI"
  result: "> 100 µM"
- compound: "N#C/C(=C\\c1cccc(O)c1)C(N)=O"
  readoutLabel: "TGI"
  result: "> 100 µM"
- compound: "CC1=C(O)C(=O)C2C(=O)C1C(C)C2c1ccc(Cl)cc1 (configuration not stated)"
  readoutLabel: "TGI"
  result: "> 100 µM"
- compound: "Cc1cccc(NC(=S)N=Nc2c(O)[nH]c3ccccc23)c1"
  readoutLabel: "TGI"
  result: "> 100 µM"
- compound: "COC(=O)/N=[N+](\\[O-])C(c1ccc(OC)cc1)C1CCCCC1 (configuration not stated)"
  readoutLabel: "TGI"
  result: "36.8 µM"
- compound: "CCCCCCCCCc1cc(=O)c2ccc(O)cc2o1"
  readoutLabel: "TGI"
  result: "64.6 µM"

# next compound below
[in] Which measured TGI value corresponds to CSc1nc2c(nc(N)n2C2OCC(O)C(O)C2O)c(=O)n1C (configuration not stated) ?
[out] > 100 µM

Just for reference, PubChem BioAssay (NCI) is where these values come from.
